# EC1.5 (concentration of test compound that results in 150% activation of SIRT1) values compiled below
Target: SIRT1 (Homo sapiens)
Sequence (Q96EB6 1-747): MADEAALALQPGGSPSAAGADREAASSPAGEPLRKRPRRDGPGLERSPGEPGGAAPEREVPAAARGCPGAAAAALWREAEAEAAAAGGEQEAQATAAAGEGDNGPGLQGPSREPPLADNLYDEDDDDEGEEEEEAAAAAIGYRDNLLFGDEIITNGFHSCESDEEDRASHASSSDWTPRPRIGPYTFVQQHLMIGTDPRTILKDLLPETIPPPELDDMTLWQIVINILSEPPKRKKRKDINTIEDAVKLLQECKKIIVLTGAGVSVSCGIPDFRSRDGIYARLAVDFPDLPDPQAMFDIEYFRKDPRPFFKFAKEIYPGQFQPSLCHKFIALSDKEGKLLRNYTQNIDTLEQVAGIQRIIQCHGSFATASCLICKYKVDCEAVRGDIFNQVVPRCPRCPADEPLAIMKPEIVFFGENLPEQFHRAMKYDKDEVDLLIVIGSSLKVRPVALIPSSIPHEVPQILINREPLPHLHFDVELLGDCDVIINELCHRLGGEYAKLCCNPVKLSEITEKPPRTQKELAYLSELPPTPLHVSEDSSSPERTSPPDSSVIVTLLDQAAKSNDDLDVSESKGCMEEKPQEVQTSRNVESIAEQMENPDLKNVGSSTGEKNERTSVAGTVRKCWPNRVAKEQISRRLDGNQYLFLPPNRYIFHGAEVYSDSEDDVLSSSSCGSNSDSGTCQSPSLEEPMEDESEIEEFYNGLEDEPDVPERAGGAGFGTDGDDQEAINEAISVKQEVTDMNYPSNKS
Assay: mass spectrometry based SIRT1 deacetylation assay (activation)
Format: biochemical
Conditions: 0.5 μM peptide substrate, 120 μM βNAD+, 10 nM SIRT1, 25 min at 25° C.; NA = not active in the assay
METRIC_NAME: EC1.5 (concentration of test compound that results in 150% activation of SIRT1) (NM)

| COMPOUND | REPORTED |
| --- | --- |
| COCCN1CCN(Cc2cnc3sc(-c4ccccc4NC(=O)c4cccc(-c5cc(F)ccc5F)n4)nc3c2)CC1 [Compound 145] | 86 |
| O=C(Nc1ccccc1-c1nc2cc(CN3CCOCC3)cnc2s1)c1ccn(-c2ccccc2)n1 [Compound 156] | 674 |
| O=C(Nc1ccccc1-c1nc2cc(CN3CCOCC3)cnc2s1)c1cccc(-c2ccccc2F)n1 [Compound 52] | 357 |
| COCCN1CCN(Cc2cnc3sc(-c4ccccc4NC(=O)c4cccc(-c5cccnc5)c4)nc3c2)CC1 [Compound 58] | 884 |
| O=C(Nc1ccccc1-c1nc2cc(CN[C@@H]3CCC[C@H]3O)cnc2s1)c1ccc2ccccc2n1 [Compound 121] | 750 |
| O=C(Nc1ccccc1-c1nc2cc(CN3C[C@@H]4C[C@H]3CN4)cnc2s1)c1cccc(-c2cccnc2)c1 [Compound 29] | 462 |
| Cc1cc(C(=O)Nc2ccccc2-c2nc3cc(CN4CCOCC4)cnc3s2)nc(-c2ccccc2)n1 [Compound 132] | 215 |
